Reported % inhibition H3N8 by item:
System: H3N8 A/Miami/2/63
Settings: A/Miami/2/63, 48 h, 10 μM
Bridge positions count the residues as written; N and C are the ends. Square brackets hold non-standard residues; d marks the D form. Peptide text beside a SMILES is read from it.
propertyName: % inhibition H3N8

compound	propertyName	result
CC[C@@H](C)[C@H]1NC(=O)[C@@H](Cc2ccccc2)NC(=O)[C@H]2CCCN2C(=O)[C@@H](Cc2ccccc2)NC(=O)[C@@H](Cc2c[nH]c3ccccc23)NC(=O)[C@@H]([C@H](C)O)NC(=O)[C@H](NC(=O)[C@H](CCCCN)NC(=O)[C@H](CCCCN)NC(=O)[C@H](CCCNC(=N)N)NC(=O)[C@@H](N)CCCNC(=N)N)CSSC[C@H](C(=O)O)NC(=O)[C@@H](CC(N)=O)NC1=O [PSP IV A13, H-RRKKctwfpfinc-OH] (H-RRKK[dC][dT][dW][dF][dP][dF][dI][dN][dC]-OH; disulfide 5-13)	% inhibition H3N8	69%
CC[C@@H](C)[C@H]1NC(=O)[C@@H](Cc2ccccc2)NC(=O)[C@@H](CC(N)=O)NC(=O)[C@@H](Cc2ccccc2)NC(=O)[C@@H](Cc2c[nH]c3ccccc23)NC(=O)[C@@H]([C@H](C)O)NC(=O)[C@H](NC(=O)[C@H](CCCCN)NC(=O)[C@H](CCCCN)NC(=O)[C@H](CCCNC(=N)N)NC(=O)[C@@H](N)CCCNC(=N)N)CSSC[C@H](C(=O)O)NC(=O)[C@@H](CC(N)=O)NC1=O [PSP IV A12, H-RRKKctwfnfinc-OH] (H-RRKK[dC][dT][dW][dF][dN][dF][dI][dN][dC]-OH; disulfide 5-13)	% inhibition H3N8	56%
CC[C@@H](C)[C@H]1NC(=O)[C@@H](Cc2ccccc2)NC(=O)[C@@H]([C@H](C)O)NC(=O)[C@@H](Cc2ccccc2)NC(=O)[C@@H](Cc2c[nH]c3ccccc23)NC(=O)[C@@H]([C@H](C)O)NC(=O)[C@H](NC(=O)[C@H](CCCCN)NC(=O)[C@H](CCCCN)NC(=O)[C@H](CCCNC(=N)N)NC(=O)[C@@H](N)CCCNC(=N)N)CSSC[C@H](C(=O)O)NC(=O)[C@@H](CC(N)=O)NC1=O [PSP IV A17, H-RRKKctwftfinc-OH] (H-RRKK[dC][dT][dW][dF][dT][dF][dI][dN][dC]-OH; disulfide 5-13)	% inhibition H3N8	97%
CC[C@@H](C)[C@H]1NC(=O)[C@@H](Cc2ccccc2)NC(=O)[C@@H](Cc2c[nH]c3ccccc23)NC(=O)[C@@H](Cc2ccccc2)NC(=O)[C@@H](Cc2c[nH]c3ccccc23)NC(=O)[C@@H]([C@H](C)O)NC(=O)[C@H](NC(=O)[C@H](CCCCN)NC(=O)[C@H](CCCCN)NC(=O)[C@H](CCCNC(=N)N)NC(=O)[C@@H](N)CCCNC(=N)N)CSSC[C@H](C(=O)O)NC(=O)[C@@H](CC(N)=O)NC1=O [PSP IV A19, H-RRKKctwfwfinc-OH] (H-RRKK[dC][dT][dW][dF][dW][dF][dI][dN][dC]-OH; disulfide 5-13)	% inhibition H3N8	94%
